Attribution: the supplement of paper PMC10567573

B1: LOXL2 (parent)
chain: HISSCKLGPQVSLDPMKNVTCENG

# Variants of: B1
# procedure-details: protein stability index of a GFP-peptide fusion (GPS, HEK-293T) (PSI 1-6); higher = more stable;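 also: lentivirally expressed fusions sorted by FACS into six bins by GFP to DsRed ratio, PSI derived from sequencing read proportions per bin multiplied by bin number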
# measurement-conditions: c terminus: a fixed tail appended

mutant-label: V19Q
protein stability index: 4.08
--
mutant-label: E22K
protein stability index: 3.89
--
mutant-label: G8N
protein stability index: 4.07
--
mutant-label: P15S
protein stability index: 3.94
